target: AChE from electric eel (Electrophorus electricus); construct: purchased Sigma-Aldrich; assay: biochemical; conditions: BuChE IC50/AChE IC50
Could you label it TRUE if measured SI (selectivity index, BuChE IC50/AChE IC50) is 40 or higher, and FALSE otherwise?

O=c1oc2cc(OCCN3CCCCC3)ccc2cc1Br    TRUE
CN(C)c1ccc(-c2cc3ccc(OCCN4CCCCC4)cc3oc2=O)cc1    TRUE
O=c1oc2cc(OCCCN3CCCCC3)ccc2cc1Br    TRUE
O=c1oc2cc(OCCCCN3CCCCC3)ccc2cc1Br    FALSE
O=c1oc2cc(OCCCN3CCCCC3)ccc2cc1-c1ccccc1    FALSE

====

tested on: N2a cells (neuroblastoma); experiment: N2a neuroblastoma cell viability, MTT assay; type: cell-based, murine; settings: 48 h incubation, maximum tested concentration 50 µM
readout-name: cytotoxicity against N2a cells (in words)

CN(C)c1ccc(-c2cc3ccc(OCCCN4CCCCC4)cc3oc2=O)cc1 [Compound 6b]    increase in toxicity
CN(C)c1ccc(-c2cc3ccc(OCCCCCN4CCCCC4)cc3oc2=O)cc1 [Compound 6c]    increase in toxicity
O=c1oc2cc(OCCN3CCCCC3)ccc2cc1-c1ccccc1 [Compound 5a]    not cytotoxic
O=c1oc2cc(OCCN3CCCCC3)ccc2cc1Br [Compound 4a]    not cytotoxic
CN(C)c1ccc(-c2cc3ccc(OCCN4CCCCC4)cc3oc2=O)cc1 [Compound 6a]    not cytotoxic
O=c1oc2cc(OCCCN3CCCCC3)ccc2cc1-c1ccccc1 [Compound 5b]    increase in toxicity
O=c1oc2cc(OCCCCCN3CCCCC3)ccc2cc1-c1ccccc1 [Compound 5c]    increase in toxicity

====

biological target: BuChE from horse serum (Equus caballus, UniProt P81908); construct: equine serum butyrylcholinesterase (EqBuChE); from tissue; host or cells: equine (horse) serum; test: biochemical; settings: mean ± SD of triplicate independent experiments
Sequence (P81908 whole entry): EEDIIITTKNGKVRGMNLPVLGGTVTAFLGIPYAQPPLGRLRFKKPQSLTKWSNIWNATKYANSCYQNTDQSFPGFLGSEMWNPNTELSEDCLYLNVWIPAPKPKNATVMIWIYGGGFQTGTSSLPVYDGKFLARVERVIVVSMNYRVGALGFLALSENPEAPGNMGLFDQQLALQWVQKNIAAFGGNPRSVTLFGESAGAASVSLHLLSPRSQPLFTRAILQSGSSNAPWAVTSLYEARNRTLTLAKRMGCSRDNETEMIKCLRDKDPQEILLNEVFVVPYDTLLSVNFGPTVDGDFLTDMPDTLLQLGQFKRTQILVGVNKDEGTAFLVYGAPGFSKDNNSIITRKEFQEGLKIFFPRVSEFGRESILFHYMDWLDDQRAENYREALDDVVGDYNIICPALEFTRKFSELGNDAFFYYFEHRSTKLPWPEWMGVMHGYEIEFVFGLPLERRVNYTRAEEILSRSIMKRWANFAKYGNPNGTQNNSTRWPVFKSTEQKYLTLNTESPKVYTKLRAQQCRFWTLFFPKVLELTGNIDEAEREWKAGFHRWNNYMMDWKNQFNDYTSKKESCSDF
// values below are reported IC50
readout-name: IC50 (µM)

CN(C)c1ccc(-c2cc3ccc(OCCN4CCCCC4)cc3oc2=O)cc1    6.73
O=c1oc2cc(OCCN3CCCCC3)ccc2cc1-c1ccccc1    2.5
CN(C)c1ccc(-c2cc3ccc(OCCCCCN4CCCCC4)cc3oc2=O)cc1    3.85
O=c1oc2cc(OCCN3CCCCC3)ccc2cc1Br    8.37
O=c1oc2cc(OCCCCN3CCCCC3)ccc2cc1Br    4.92

====

target: AChE from electric eel (Electrophorus electricus, UniProt O42275); construct: purchased Sigma-Aldrich; assay: biochemical; details: IC50(μM)±SD AChE, AChE from electric eel; mean ± SD of triplicate independent experiments
Sequence (O42275 24-633): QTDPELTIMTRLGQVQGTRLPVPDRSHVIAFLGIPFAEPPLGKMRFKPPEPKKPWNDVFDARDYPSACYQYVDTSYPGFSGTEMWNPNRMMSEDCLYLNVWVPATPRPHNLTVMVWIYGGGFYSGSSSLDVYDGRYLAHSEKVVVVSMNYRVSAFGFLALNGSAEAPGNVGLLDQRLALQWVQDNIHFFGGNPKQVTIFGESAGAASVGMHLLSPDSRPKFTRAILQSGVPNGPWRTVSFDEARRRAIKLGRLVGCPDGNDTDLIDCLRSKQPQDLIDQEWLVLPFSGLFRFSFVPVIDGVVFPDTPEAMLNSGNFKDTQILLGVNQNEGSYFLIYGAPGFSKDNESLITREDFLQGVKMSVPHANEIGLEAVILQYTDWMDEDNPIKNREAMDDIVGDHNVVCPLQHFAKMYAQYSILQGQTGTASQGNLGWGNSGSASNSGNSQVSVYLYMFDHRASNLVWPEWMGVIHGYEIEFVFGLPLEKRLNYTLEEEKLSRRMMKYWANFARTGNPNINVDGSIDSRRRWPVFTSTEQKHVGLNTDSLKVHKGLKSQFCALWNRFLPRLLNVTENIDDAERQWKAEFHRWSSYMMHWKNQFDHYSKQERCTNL
readout-name: IC50

CN(C)c1ccc(-c2cc3ccc(OCCN4CCCCC4)cc3oc2=O)cc1    0.02 µM

====

molecular target: AChE from electric eel (Electrophorus electricus); construct: purchased Sigma-Aldrich; assay: biochemical; conditions: BuChE IC50/AChE IC50
Collected SI (selectivity index, BuChE IC50/AChE IC50) values appear next to each entry.
readout-name: SI (selectivity index, BuChE IC50/AChE IC50)

CN(C)c1ccc(-c2cc3ccc(OCCCCCN4CCCCC4)cc3oc2=O)cc1    4
O=c1oc2cc(OCCCCCN3CCCCC3)ccc2cc1-c1ccccc1    2
O=c1oc2cc(OCCCCCN3CCCCC3)ccc2cc1Br    33
O=c1oc2cc(OCCN3CCCCC3)ccc2cc1-c1ccccc1    18
CN(C)c1ccc(-c2cc3ccc(OCCCN4CCCCC4)cc3oc2=O)cc1    22

====

Parameter: Neuroblastoma cell viability, MTT reduction relative to control cells, Mean ± SD. Scope: all listed entries.
tested on: N2a cells (neuroblastoma); assay: N2a neuroblastoma cell viability, MTT assay; format: cell-based, murine; details: 10 µM, 48 h
readout-name: Neuroblastoma cell viability, MTT reduction relative to control cells, Mean ± SD (%)

O=c1oc2cc(OCCCCN3CCCCC3)ccc2cc1Br [Compound 4c]    94.43
O=c1oc2cc(OCCCCCN3CCCCC3)ccc2cc1Br [Compound 4d]    80.10
O=c1oc2cc(OCCCN3CCCCC3)ccc2cc1Br [Compound 4b]    93.34
O=c1oc2cc(OCCCCCN3CCCCC3)ccc2cc1-c1ccccc1 [Compound 5c]    117.4
CN(C)c1ccc(-c2cc3ccc(OCCCN4CCCCC4)cc3oc2=O)cc1 [Compound 6b]    84.11
CN(C)c1ccc(-c2cc3ccc(OCCN4CCCCC4)cc3oc2=O)cc1 [Compound 6a]    92.15
O=c1oc2cc(OCCCN3CCCCC3)ccc2cc1-c1ccccc1 [Compound 5b]    83.55
CN(C)c1ccc(-c2cc3ccc(OCCCCCN4CCCCC4)cc3oc2=O)cc1 [Compound 6c]    59.04
O=c1oc2cc(OCCN3CCCCC3)ccc2cc1-c1ccccc1 [Compound 5a]    98.37
O=c1oc2cc(OCCN3CCCCC3)ccc2cc1Br [Compound 4a]    89.16

====

Listing of recorded log10 IC50 by entry.
molecular target: BuChE from horse serum (Equus caballus); construct: equine serum butyrylcholinesterase (EqBuChE); from tissue; host or cells: equine (horse) serum; experiment: biochemical; settings: mean ± SD of triplicate independent experiments
readout-name: log10 IC50 (log10 of the value in µM)

O=c1oc2cc(OCCCCCN3CCCCC3)ccc2cc1-c1ccccc1 [Compound 5c]    -0.05
CN(C)c1ccc(-c2cc3ccc(OCCCN4CCCCC4)cc3oc2=O)cc1 [Compound 6b]    0.86
O=c1oc2cc(OCCCN3CCCCC3)ccc2cc1-c1ccccc1 [Compound 5b]    0.27
O=c1oc2cc(OCCCN3CCCCC3)ccc2cc1Br [Compound 4b]    1.20
O=c1oc2cc(OCCCCCN3CCCCC3)ccc2cc1Br [Compound 4d]    0.70

====

Quick list: IC50 per entry.
Target: AChE from electric eel (Electrophorus electricus, UniProt O42275)
Construct: purchased Sigma-Aldrich
Assay: biochemical
Settings: AChE from electric eel; mean ± SD of triplicate independent experiments; read-out: IC50(μM)±SD AChE
Protocol: Activity of enzymes and inhibition kinetics were determined using a Bio-Rad iMark microplate reader based on a modification of the Ellman method.[14] ^, [15] Compounds were dissolved in DMSO. […] Absorbance was then recorded at λ = 415 nm. […] acetylthiocholine iodide (ACTI) or S-butyrylthiocholine iodide (BCTI) were added and the absorbance recorded after a 10-minute incubation at 30 °C at λ = 415 nm for 3 times within 30 seconds. […]
readout-name: IC50

O=c1oc2cc(OCCCCCN3CCCCC3)ccc2cc1-c1ccccc1    0.45 µM
O=c1oc2cc(OCCCN3CCCCC3)ccc2cc1Br    0.37 µM
O=c1oc2cc(OCCCCN3CCCCC3)ccc2cc1Br    0.55 µM
O=c1oc2cc(OCCN3CCCCC3)ccc2cc1Br    0.18 µM
O=c1oc2cc(OCCCN3CCCCC3)ccc2cc1-c1ccccc1    0.24 µM
O=c1oc2cc(OCCN3CCCCC3)ccc2cc1-c1ccccc1    0.14 µM
CN(C)c1ccc(-c2cc3ccc(OCCCN4CCCCC4)cc3oc2=O)cc1    0.33 µM

====

target: equine serum butyrylcholinesterase (EqBuChE) (Equus caballus, UniProt P81908); construct: equine serum butyrylcholinesterase (EqBuChE); experiment: biochemical; details: ± SD of triplicate; read-out: Ki (competitive inhibition constant) on BuChE
Sequence (P81908 whole entry): as the sequence (P81908 whole entry) above
readout-name: Ki

O=c1oc2cc(OCCCCCN3CCCCC3)ccc2cc1Br    2130 nM
CN(C)c1ccc(-c2cc3ccc(OCCN4CCCCC4)cc3oc2=O)cc1    2580 nM

====

test system: N2a cells (neuroblastoma); test: N2a neuroblastoma cell viability, MTT assay; format: cell-based, murine; conditions: 50 µM, 48 h
Simple rule here: Neuroblastoma cell viability, MTT reduction relative to control cells, Mean ± SD less than 90% is Condition met, otherwise Condition not met.

O=c1oc2cc(OCCCCCN3CCCCC3)ccc2cc1Br    Condition met
CN(C)c1ccc(-c2cc3ccc(OCCCCCN4CCCCC4)cc3oc2=O)cc1    Condition met
CN(C)c1ccc(-c2cc3ccc(OCCCN4CCCCC4)cc3oc2=O)cc1    Condition met
O=c1oc2cc(OCCN3CCCCC3)ccc2cc1Br    Condition not met
CN(C)c1ccc(-c2cc3ccc(OCCN4CCCCC4)cc3oc2=O)cc1    Condition not met
O=c1oc2cc(OCCCN3CCCCC3)ccc2cc1-c1ccccc1    Condition met
O=c1oc2cc(OCCN3CCCCC3)ccc2cc1-c1ccccc1    Condition not met
O=c1oc2cc(OCCCCCN3CCCCC3)ccc2cc1-c1ccccc1    Condition met
